# testSystem: Cytochrome P450 2C19 (Homo sapiens, UniProt P33261)
# Sequence (P33261 whole entry): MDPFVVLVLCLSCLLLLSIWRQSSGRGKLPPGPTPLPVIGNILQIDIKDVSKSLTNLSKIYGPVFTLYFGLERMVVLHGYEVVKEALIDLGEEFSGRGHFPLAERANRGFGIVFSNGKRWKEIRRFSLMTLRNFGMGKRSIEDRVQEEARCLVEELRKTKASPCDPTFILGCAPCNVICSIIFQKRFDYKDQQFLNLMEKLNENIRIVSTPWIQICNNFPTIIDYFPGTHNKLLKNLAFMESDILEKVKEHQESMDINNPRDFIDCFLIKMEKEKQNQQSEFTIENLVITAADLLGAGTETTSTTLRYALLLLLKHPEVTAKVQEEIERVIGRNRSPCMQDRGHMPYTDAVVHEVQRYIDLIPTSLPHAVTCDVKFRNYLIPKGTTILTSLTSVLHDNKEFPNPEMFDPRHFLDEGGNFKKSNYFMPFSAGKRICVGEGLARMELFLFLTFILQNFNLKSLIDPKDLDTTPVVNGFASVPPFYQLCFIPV
readoutType: IC50 (nM)
Numeric only. Scale: nM

The molecule identified as O=c1ccc2ccc(COC(Cn3ccnc3)c3ccc(Cl)cc3Cl)cc2o1 (stereo unspecified) registered its IC50 at 227

----------
# System: Candida albicans
# testDescription: Antifungal activity against fluconazole-resistant Candida albicans 901 assessed as fungal growth inhibition by CLSI based microdilution method
# Type: functional
Attribute: MIC
Numeric only. Scale: µg/mL

O=c1oc2ccccc2cc1COC(Cn1ccnc1)c1ccc(Cl)cc1Cl (centres undefined)	4
O=c1ccc2cc(COC(Cn3ccnc3)c3ccc(Cl)cc3Cl)ccc2o1 (centres undefined)	32
O=c1ccc2ccc(COC(Cn3ccnc3)c3ccc(F)cc3F)cc2o1 (centres undefined)	64
O=c1oc2ccccc2cc1COC(Cn1ccnc1)c1ccc(F)cc1 (centres undefined)	8
O=c1ccc2cc(COC(Cn3ccnc3)c3ccc(F)cc3)ccc2o1 (centres undefined)	64

Proceed to the following item.
The recorded MIC with Candida albicans for O=c1ccc2ccc(COC(Cn3ccnc3)c3ccc(F)cc3)cc2o1 (centres undefined) was 64
